From: PubChem BioAssay (NCI)

test system: HCT-116 colon; experiment: NCI tumour cell line growth inhibition, 48 h
Readout name: TGI

Compound	Study system	Readout name	Value measured
O=C1C=CC(=O)c2c1ccc1c3ccccc3n(-c3ccccn3)c21	HCT-116 colon	TGI	25.9 µM
COC(=O)C1(C)C=C(Nc2ccccc2)C(=O)N1c1ccccc1 (configuration not stated)	HCT-116 colon	TGI	> 100 µM
CSC1=N/C(=C\c2ccc(C)cc2)C(=O)N1CN1CCOCC1	HCT-116 colon	TGI	> 100 µM
S=CN1CCCCC1	HCT-116 colon	TGI	> 100 µM
CCOC(=O)/C(C#N)=C/c1ccc2c(-c3c(OCC)ccc4cc(/C=C(\C#N)C(=O)OCC)ccc34)c(OCC)ccc2c1	HCT-116 colon	TGI	> 100 µM
c1ccc2c(c1)ccc1nc(-c3ccc4c(c3)OCO4)c3c(c12)CCCC3	HCT-116 colon	TGI	> 100 µM
NC(=S)/N=C/c1c(O)c2ccccc2oc1=O	HCT-116 colon	TGI	> 100 µM
O=C(CCN1CCN(c2cccc(Cl)c2)CC1)N1CCc2c([nH]c3ccccc23)C1c1cccnc1 (configuration not stated)	HCT-116 colon	TGI	18.3 µM
CC(O)C1OC(O)C2OC(C)(C)OC12 (configuration not stated)	HCT-116 colon	TGI	> 100 µM
COc1c2c(c(OC)c3c1c(=O)c1ccccc1n3C)OCO2	HCT-116 colon	TGI	> 91.6 µM
Cc1cc2c(cc1C)NC(=O)C(NC(=O)/C=C/c1ccccc1)C=N2 (configuration not stated)	HCT-116 colon	TGI	50.8 µM
c1ccc(N=C2c3ccccc3CN2c2ccccc2)cc1	HCT-116 colon	TGI	> 100 µM

* * *

System: NCI-H460 lung | Read-out: GI50

Compound	GI50
CC/C=C\C[C@H](O)C/C=C1/C(=O)C=C[C@@H]1C/C=C\CCCC(=O)NC(C)C	2.43 µM
COc1ccc(-c2ccc(C3CC(c4ccc(O)cc4)=NN3)o2)c([N+](=O)[O-])c1 (centres undefined)	21.1 µM
C=C1C(=O)O[C@H]2[C@H]1CC/C(COC(=O)C(=O)c1c[nH]c3ccccc13)=C\CC[C@@]1(C)O[C@@H]21	4.03 µM
CN1CCN(Cc2ccc(-c3cc4ncnc(Nc5ccc(OCc6cccc(F)c6)c(Cl)c5)c4s3)o2)CC1	4.56 µM
CC(C)C[C@H](NC(=O)[C@H](Cc1ccccc1)n1ccc(N2CCCCC2)cc1=O)B(O)O	3.18 µM
COc1cccc(-c2nn(-c3ccccc3)cc2-c2ccnc(NCCNS(=O)(=O)c3ccc(Cl)cc3)c2)c1	5.15 µM
CCNC(=O)C[C@@H]1N=C(c2ccc(Cl)cc2)c2cc(OC)ccc2-n2c(C)nnc21	> 100 µM
O=[N+]([O-])c1cnc(Sc2ccncn2)c([N+](=O)[O-])c1	23 µM
CC1=C(C)C(=O)c2c(c(C(=O)c3ccccc3)c3nc4ccccc4n3c2C)C1=O	63.3 µM

* * *

Below is a list of entries, each paired with its recorded GI50 value.
test system: CCRF-CEM leukemia; assay: NCI tumour cell line growth inhibition, 48 h

Query smiles	GI50
Oc1ccc(C(c2ccccc2)(c2ccccc2)c2ccccc2)cc1	21.1 µM
CC/C=C\C[C@H](O)C/C=C1/C(=O)C=C[C@@H]1C/C=C\CCCC(=O)NC(C)C	2.09 µM
COc1cc(/C=C(/C)[N+](=O)[O-])ccc1O	1.85 µM
COc1ccc(CN2C(=O)/C(=C\c3cc(OC)c(OC)c(OC)c3)c3cc(OC)ccc32)cc1	3.4 µM
O=C(Nc1ccc(-c2nc3cc4ccccc4cc3[nH]2)cc1)c1cccc(Br)c1	9.55 µM
O=S(=O)([O-])[O-].[OH3+].[OH3+].[OH3+].[Ru+2].c1ccccc1	> 100 µM
O=C(Nc1ccc(Cl)c([N+](=O)[O-])c1)Nc1nc2ccccc2s1	3.88 µM
Cn1ccnc1C(=O)/C=C/c1ccc(CC(=O)Nc2ccc(Cl)cc2)cc1	1.46 µM
